SYSTEM_TESTED: FabX (Helicobacter pylori)
Construct: gene HP_0773; recombinant from pQE2 vector in E. coli BL21(DE3) Rosetta, Ni-NTA, HiTrap-SP, Superdex75; FMN and [4Fe-4S] cofactors
ASSAY_EXPLANATION: biochemical
Set-up: FabX-FabI enzyme-coupled assay, NADH consumption read-out of FabX inhibition
CONDITION_INFO: read-out: Inhibition (%) 1 μM
# label = 1 if inhibition at 1 µM >= 30% else 0

INSERT INTO measurements (compound, system_tested, label_value) VALUES
  ('N#Cc1cccc(NS(=O)(=O)c2ncccc2Nc2ccc(Cl)cc2Cl)c1 [11c]', 'FabX (Helicobacter pylori)', 0),
  ('O=C(O)c1cccc(NS(=O)(=O)c2cccnc2Nc2ccc(Cl)cc2)c1', 'FabX (Helicobacter pylori)', 0),
  ('O=S(=O)(NCc1ccccc1)c1cccnc1Nc1ccc(Cl)cc1', 'FabX (Helicobacter pylori)', 0),
  ('N#Cc1cccc(NS(=O)(=O)c2ccccc2Nc2ccc(Cl)cc2Cl)c1 [11d]', 'FabX (Helicobacter pylori)', 1),
  ('N#Cc1cccc(NS(=O)(=O)c2cccnc2Nc2ccc(Cl)cc2)c1', 'FabX (Helicobacter pylori)', 1),
  ('N#Cc1cccc(NS(=O)(=O)c2ccncc2Nc2ccc(Cl)cc2Cl)c1 [11a]', 'FabX (Helicobacter pylori)', 1),
  ('N#Cc1cccc(NS(=O)(=O)c2cccnc2Nc2ccc(Cl)cc2Cl)c1', 'FabX (Helicobacter pylori)', 1);

###

SYSTEM_TESTED: FabX (Helicobacter pylori)
Construct: recombinant from pQE2 vector in E. coli BL21(DE3) Rosetta, Ni-NTA, HiTrap-SP, Superdex75; FMN and [4Fe-4S] cofactors
Sequence (O25465 1-363): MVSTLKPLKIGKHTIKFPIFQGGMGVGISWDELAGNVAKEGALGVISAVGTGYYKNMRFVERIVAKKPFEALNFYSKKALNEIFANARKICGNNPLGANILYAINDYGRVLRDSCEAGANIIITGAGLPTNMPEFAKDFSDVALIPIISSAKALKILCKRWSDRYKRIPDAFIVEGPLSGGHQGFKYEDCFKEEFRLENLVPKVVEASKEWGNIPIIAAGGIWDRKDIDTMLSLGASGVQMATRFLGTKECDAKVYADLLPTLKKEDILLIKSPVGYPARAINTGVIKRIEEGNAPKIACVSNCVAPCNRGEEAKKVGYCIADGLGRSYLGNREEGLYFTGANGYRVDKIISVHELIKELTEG
ASSAY_EXPLANATION: isothermal titration calorimetry
pKd: −log10 of the molar value.
MEASURE: pKd

INSERT INTO measurements (compound, system_tested, recorded_result) VALUES
  ('O=C(O)c1cccc(NS(=O)(=O)c2cccnc2Nc2ccc(Cl)cc2Cl)c1 [8j, FBX-1872]', 'FabX (Helicobacter pylori)', 6.36);

###

Test system: Helicobacter pylori BHKS 568
Construct: BHKS568 (NSH57 IR0203::fabX ΔfabX) native fabX relocated to IR0203
ASSAY_EXPLANATION: microbe, parasite or virus in culture
CONDITION_INFO: BHKS568, read-out: MIC
MEASURE: MIC (µg/mL)

INSERT INTO assay_data (record_smiles, measure, cmp, recorded_result) VALUES
  ('CCOC(=O)c1cccc(NS(=O)(=O)c2cccnc2Nc2ccc(Cl)cc2Cl)c1', 'MIC', '=', 16),
  ('O=C(OCCCCCC[P+](c1ccccc1)(c1ccccc1)c1ccccc1)c1cccc(NS(=O)(=O)c2cccnc2Nc2ccc(Cl)cc2Cl)c1', 'MIC', '=', 16),
  ('CC(C)OC(=O)c1cccc(NS(=O)(=O)c2cccnc2Nc2ccc(Cl)cc2Cl)c1', 'MIC', '=', 32),
  ('O=C(O)c1cccc(NS(=O)(=O)c2cccnc2Nc2ccc(Cl)cc2Cl)c1', 'MIC', '>', 64),
  ('CC(C)(C)OC(=O)c1cccc(NS(=O)(=O)c2cccnc2Nc2ccc(Cl)cc2Cl)c1', 'MIC', '=', 32),
  ('COC(=O)c1cccc(NS(=O)(=O)c2cccnc2Nc2ccc(Cl)cc2Cl)c1', 'MIC', '=', 16);

Values were extracted from paper PMC12079444.
